# Tested on: Candida albicans
# protocol notes: Inhibition of ergosterol synthesis as measured in Candida albicans subcellular screen
# Type: functional
experimental readout: pIC50
# reply with the number alone; pIC50 is -log10 of concentration in mol/L

Solved cases below.
CCCCCCN(Cc1c[nH]cn1)S(=O)(=O)c1ccc(OCCCC)cc1 = 7.12
CCCCOc1ccc(S(=O)(=O)N(CCCCc2ccccc2)Cc2c[nH]cn2)cc1 = 7.57
CCCCOc1ccc(S(=O)(=O)N(CCc2cccs2)Cc2c[nH]cn2)cc1 = 7.96
CCCCOc1ccc(S(=O)(=O)N(Cc2c[nH]cn2)C(C(C)C)C(C)C)cc1 = 7.14
CC(C)C(C(C)C)N(Cc1c[nH]cn1)S(=O)(=O)c1cc(Cl)sc1Cl = 7.15
Brc1ccc(CCN(Cc2ccc(-c3ccccc3)cc2)Cc2c[nH]cn2)cc1 = 5.91
CCCCCc1ccc(S(=O)(=O)N(CCC(C)C)Cc2c[nH]cn2)cc1 = 6.92

Now look at this one.
Need pIC50, item CCCCOc1ccc(S(=O)(=O)N(CCc2ccc(F)cc2)Cc2c[nH]cn2)cc1
7.59

###

A collection of molecules and their measured MIC
# Test system: Aspergillus fumigatus
# protocol notes: Minimum inhibitory concentration of compound for antifungal activity against Aspergillus fumigatus
# Assay type: functional

Consider the reported MIC for these molecules:
CCC(C)n1ncn(-c2ccc(N3CCN(c4ccc(OCC5COC(Cn6cncn6)(c6ccc(Cl)cc6Cl)O5)cc4)CC3)cc2)c1=O (centres undefined) = 1 µM
CCCCOc1ccc(S(=O)(=O)N(CCc2ccc(F)cc2)Cc2c[nH]cn2)cc1 = > 10 µM
CCCCOc1ccc(S(=O)(=O)N(Cc2c[nH]cn2)C(CC)C2CCCCC2)cc1 (centres undefined) = > 10 µM

Shift focus to the following entry.
Give the measured MIC of CCCCOc1ccc(S(=O)(=O)N(Cc2c[nH]cn2)C(C(C)C)C(C)C)cc1 .
> 10 µM

###

# Tested on: Candida albicans
# protocol notes: Minimum inhibitory concentration of compound for antifungal activity against Candida albicans 4
# Type: functional
experimental readout: MIC

Worked set:
OC(Cn1cncn1)(Cn1cncn1)c1ccc(F)cc1F = 1 µM
CCCCOc1ccc(S(=O)(=O)N(Cc2c[nH]cn2)C(C(C)C)C(C)C)cc1 = < 0.1 µM
CCCCOc1ccc(S(=O)(=O)N(Cc2c[nH]cn2)C(CC)C2CCCCC2)cc1 (configuration not stated) = < 0.1 µM
CCC(C)n1ncn(-c2ccc(N3CCN(c4ccc(OCC5COC(Cn6cncn6)(c6ccc(Cl)cc6Cl)O5)cc4)CC3)cc2)c1=O (configuration not stated) = > 10 µM
CCCCOc1ccc(S(=O)(=O)N(Cc2cncn2C)C(C)C2CCCCC2)cc1 (configuration not stated) = 10 µM

Candida albicans / MIC / CCCCOc1ccc(S(=O)(=O)N(CCc2ccc(F)cc2)Cc2c[nH]cn2)cc1 : value?
10 µM

So what MIC did CC(=O)N1CCN(c2ccc(OC[C@H]3CO[C@](Cn4ccnc4)(c4ccc(Cl)cc4Cl)O3)cc2)CC1 get with Candida albicans?
10 µM

###

# Test system: Trichophyton rubrum
# protocol notes: Minimum inhibitory concentration of compound for antifungal activity against Trichophyton rubrum
# Format: functional
experimental readout: MIC (µM)
State the answer as a number, implicitly in µM.

Reference set, count: 5
CCCCOc1ccc(S(=O)(=O)N(CCc2ccc(F)cc2)Cc2c[nH]cn2)cc1 = 1
CCCCOc1ccc(S(=O)(=O)N(Cc2c[nH]cn2)C(CC)C2CCCCC2)cc1 (configuration not stated) = 1
CC(=O)N1CCN(c2ccc(OC[C@H]3CO[C@](Cn4ccnc4)(c4ccc(Cl)cc4Cl)O3)cc2)CC1 = 0.1
CCCCOc1ccc(S(=O)(=O)N(Cc2c[nH]cn2)C(C(C)C)C(C)C)cc1 = 1
OC(Cn1cncn1)(Cn1cncn1)c1ccc(F)cc1F = 10

Would you kindly look at the next entry?
Entry CCCCOc1ccc(S(=O)(=O)N(Cc2cncn2C)C(C)C2CCCCC2)cc1 (configuration not stated) : reported MIC = ?
1

Data origin, for the record: ChEMBL document CHEMBL1132741
